Biological target: human PAI-1 (Homo sapiens, UniProt P05121)
Sequence (P05121 24-402): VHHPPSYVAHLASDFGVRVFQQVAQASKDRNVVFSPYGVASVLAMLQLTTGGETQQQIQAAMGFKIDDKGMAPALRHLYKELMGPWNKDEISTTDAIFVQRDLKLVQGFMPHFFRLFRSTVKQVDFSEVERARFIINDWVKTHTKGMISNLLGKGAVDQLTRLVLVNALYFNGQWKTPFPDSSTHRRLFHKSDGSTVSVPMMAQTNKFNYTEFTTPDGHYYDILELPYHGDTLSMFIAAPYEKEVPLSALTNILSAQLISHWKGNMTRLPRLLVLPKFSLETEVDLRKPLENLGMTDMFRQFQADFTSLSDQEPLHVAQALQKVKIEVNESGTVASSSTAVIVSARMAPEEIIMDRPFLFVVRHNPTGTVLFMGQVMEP
Experiment: Measurement of PAI-1 inhibitory activity of compound group 1 (t-PA, Spectrozyme t-PA chromogenic substrate)
Details: read-out: PAI-1 activity %
Structures can show the parent of a compound that is named as a salt.
Each entry below carries its reported activity at 10 µM.
measuredEndpoint: activity at 10 µM (%)

molecule	reading
O=C(COc1ccccc1C1CCCCC1)Nc1ccc(Cl)cc1C(=O)O	0.8
O=C(Nc1ccc(Cl)cc1C(=O)O)c1ccc(-c2cccs2)cc1	0.4
O=C(Cc1ccc(-c2ccccc2)cc1)Nc1ccc(Cl)cc1C(=O)O	4.4
O=C(Nc1ccc(CCC2CCCCC2)cc1C(=O)O)c1ccc(C2CCCCC2)cc1	0
O=C(/C=C/c1cccc(-c2cccnc2)c1)Nc1ccc(Cl)cc1C(=O)O	34.2
O=C(Nc1ccc(Cl)cc1C(=O)[O-])c1cccc(-c2ccc3ncccc3c2)c1.[Na+]	0.4
O=C(Nc1ccc(Cl)cc1C(=O)O)c1cccc(OCc2ccc3ccccc3n2)c1	0.3
O=C(Nc1ccc(Cl)cc1C(=O)[O-])c1cccc(-c2cccc3cnccc23)c1.[Na+]	0.1
Cc1sc(NC(=O)c2cccc(-c3ccoc3)c2)c(C(=O)O)c1-c1ccccc1	0.3
CC(C)(Oc1cccc(-c2ccoc2)c1)C(=O)Nc1ccc(Cl)cc1C(=O)O	20.4
O=C(Nc1ccc(Cl)cc1C(=O)O)c1ccc(OCC23CC4CC(CC(C4)C2)C3)cc1	5.1
O=C(Nc1ccc(Cl)cc1C(=O)O)c1ccc(C#CC2CCCCC2)cc1	0.8
O=C(O)c1cc(Cl)ccc1NC(=O)N1CCN(C(c2ccccc2)c2ccccc2)CC1 [Example 75, hydrochloride]	4.7
O=C(Nc1ccc(Cl)cc1C(=O)[O-])c1ccc(-c2cccc3cccnc23)cc1.[Na+]	0.6
O=C(O)c1cc(Cl)ccc1NC(=O)c1cccc2c1Cc1ccccc1-2	2.5
O=C(Nc1ccc(Cl)cc1C(=O)O)c1ccc2c(c1)CCCC2 [Known compound (5), reference compound]	18.8
O=C(Nc1ccc(Cl)cc1C(=O)O)c1cccc(C2CCCCC2)c1	0

---

Molecular target: human PAI-1 (Homo sapiens, UniProt P05121)
Assay: Measurement of PAI-1 inhibitory activity of compound group 1 (t-PA, Spectrozyme t-PA chromogenic substrate)
Details: read-out: PAI-1 activity %
Rule: YES for activity at 10 µM not less than 0.9%, NO for anything less.

compound	measuredTarget	categoryLabel
O=C(Nc1ccc(Cl)cc1C(=O)O)c1ccc(-c2ccccc2)o1	human PAI-1 (Homo sapiens, UniProt P05121)	YES
O=C(COc1cccc(-c2ccoc2)c1)Nc1ccc(-c2ccccc2)cc1C(=O)O	human PAI-1 (Homo sapiens, UniProt P05121)	NO
O=C(Cn1ccc2cc(-c3ccccc3)ccc21)Nc1ccc(Cl)cc1C(=O)O	human PAI-1 (Homo sapiens, UniProt P05121)	YES
Cc1ccc(-c2ccc(OCC(=O)Nc3ccc(Cl)cc3C(=O)O)cc2)cc1	human PAI-1 (Homo sapiens, UniProt P05121)	YES
O=C(O)c1cc(Cl)ccc1NC(=O)C(c1ccccc1)c1ccccc1 [Known compound (6), reference compound]	human PAI-1 (Homo sapiens, UniProt P05121)	YES
O=C(Nc1ccc(C2CCCCC2)cc1C(=O)O)c1ccc(C2CCCCC2)cc1	human PAI-1 (Homo sapiens, UniProt P05121)	YES
O=C(COc1ccc(C2CCCCC2)cc1)Nc1ccc(Cl)cc1C(=O)O [Known compound (3), reference compound]	human PAI-1 (Homo sapiens, UniProt P05121)	NO
